Molecular target: Delta-type opioid receptor (Mus musculus, UniProt P32300)
Sequence (P32300 whole entry): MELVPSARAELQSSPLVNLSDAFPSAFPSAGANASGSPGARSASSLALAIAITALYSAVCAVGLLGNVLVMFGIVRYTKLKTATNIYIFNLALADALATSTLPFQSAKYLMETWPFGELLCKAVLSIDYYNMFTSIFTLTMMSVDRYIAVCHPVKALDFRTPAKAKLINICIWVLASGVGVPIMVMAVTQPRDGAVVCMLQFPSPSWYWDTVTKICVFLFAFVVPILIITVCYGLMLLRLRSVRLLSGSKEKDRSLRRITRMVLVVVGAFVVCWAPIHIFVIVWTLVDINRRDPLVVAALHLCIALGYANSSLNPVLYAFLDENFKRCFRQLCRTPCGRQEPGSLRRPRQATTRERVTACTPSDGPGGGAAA
Test: Displacement of [3H]bremazocine from mouse delta opioid receptor expressed in HEK293 cells by liquid scintillation counting
Assay type: cell-based
readout name: Ki (µM)
Report the figure in µM without appending any unit label.

Param item = `CN(C)Cc1nnc(-c2cccc(C(C)(C)C)c2)n1-c1cccc(O)c1` ; retrieve measured Ki.
2.6

---

Each item that follows carries a reported pIC50.
Biological target: Kappa-type opioid receptor (Rattus norvegicus)
Sequence (P34975 whole entry): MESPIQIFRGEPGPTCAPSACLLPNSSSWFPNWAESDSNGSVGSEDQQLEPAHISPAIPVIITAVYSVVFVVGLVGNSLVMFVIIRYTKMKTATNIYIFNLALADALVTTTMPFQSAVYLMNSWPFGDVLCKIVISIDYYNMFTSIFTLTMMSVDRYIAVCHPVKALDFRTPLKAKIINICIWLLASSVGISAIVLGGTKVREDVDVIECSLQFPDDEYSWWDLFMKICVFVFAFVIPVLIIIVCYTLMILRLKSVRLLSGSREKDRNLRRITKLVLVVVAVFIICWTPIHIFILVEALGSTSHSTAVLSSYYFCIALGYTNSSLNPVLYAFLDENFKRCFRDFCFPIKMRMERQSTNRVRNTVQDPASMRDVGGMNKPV
Assay: Displacement of [3H]U69593 from rat kappa opioid receptor expressed in HEK293 cells by liquid scintillation counting
Remember the convention: pIC50 equals -log10 of concentration in molar.

substance smiles: CN(C)Cc1nc(-c2cccc(O)c2)n(-c2ccc(C(C)(C)C)cc2)n1
target: Kappa-type opioid receptor (Rattus norvegicus)
pIC50: 6.12

Param item = `Cc1ccc(-c2nc(CN(C)C)nn2-c2cccc(O)c2)c(C)c1` ; retrieve measured pIC50.
6.45

Param item = `CN(C)Cc1nc(-c2ccc(C(C)(C)C)cc2)n(-c2cccc(O)c2)n1` ; retrieve measured pIC50.
5.41

Param item = `CN(C)Cc1nc(-c2cccc(O)c2)n(-c2cccc(C(C)(C)C)c2)n1` ; retrieve measured pIC50.
7.33

Param item = `C=CCN1C[C@H](C)N([C@H](c2ccc(C(=O)N(CC)CC)cc2)c2cccc(OC)c2)C[C@H]1C` ; retrieve measured pIC50.
5.44

Param item = `CN(C)Cc1nc(-c2cccc(C(C)(C)C)c2)n(-c2cccc(O)c2)n1` ; retrieve measured pIC50.
6.47
